Each recorded value in this set is attributed to PubChem BioAssay AID2685.

assay_procedure: qHTS Assay for Lipid Storage Modulators in Drosophila S3 Cells;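 further: cells counted by Cell Tracker Red CMTPX staining in the red channel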
measurement_parameters: BODIPY lipid droplet fluorescence, 18-24 h, cells fed with added oleic acid; measured here: cell count max response
About 2,100 (0.66%) of roughly 320,000 compounds were called active. About 53% were inconclusive and are not listed. Many of the other results were omitted from the sample, so actives are more common in it than they were.
reported_property: cell number change (%)
Respond numerically; units are % and should not be typed.

| compound | unit_of_measure | cell number change |
| --- | --- | --- |
| CNC(=O)/C(C#N)=C/c1c(F)cccc1Cl | % | -9.91 |
| O=[N+]([O-])c1ccc(CN2CCCCCC2)s1 | % | -8.81 |
| O=C(CCNC(=O)c1ccccc1Cl)Nc1nc2ccccc2s1 | % | 9.97 |
| CCOC(=O)C1CCN(CCC(=O)Nc2ccc(Br)c(C)c2)CC1 | % | 0.794 |
| CCOc1ccc(S(=O)(=O)Nc2cccc(C(=O)N3CCN(c4ccc(OC)cc4)CC3)c2)cc1 | % | -10.3 |
| CCC(C)N1C(=O)S/C(=C/c2ccc(N3CCOCC3)cc2C)C1=O (centres undefined) | % | 12.1 |

IN: Need cell number change, item CCCN=CC1=C(O)CC(c2ccccc2)CC1=O (centres undefined)
OUT: 5.05

IN: What about this compound? Cc1ccc(NC(=O)c2cc(S(=O)(=O)NCCC3=CCCCC3)ccc2F)cc1
OUT: -3.48

IN: What about this compound? O=C(Cc1ccccc1)Nc1nc2ccccc2s1
OUT: -15.5
